Hey, just so you know, these numbers are from patent US20230265083A1.

test_target: CDK9/Cyclin T1 (Homo sapiens, UniProt P50750)
Sequence (P50750 whole entry): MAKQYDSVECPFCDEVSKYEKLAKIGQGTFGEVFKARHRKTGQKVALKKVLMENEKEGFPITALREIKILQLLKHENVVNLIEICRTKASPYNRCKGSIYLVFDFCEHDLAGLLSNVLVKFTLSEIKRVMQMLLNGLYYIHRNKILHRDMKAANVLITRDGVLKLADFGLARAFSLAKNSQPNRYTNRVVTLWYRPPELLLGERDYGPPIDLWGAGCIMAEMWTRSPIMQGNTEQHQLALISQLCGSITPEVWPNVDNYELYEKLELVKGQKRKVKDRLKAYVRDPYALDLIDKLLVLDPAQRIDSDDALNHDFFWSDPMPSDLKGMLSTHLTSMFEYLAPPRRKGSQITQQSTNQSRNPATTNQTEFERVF
Sequence (O60563 whole entry partner): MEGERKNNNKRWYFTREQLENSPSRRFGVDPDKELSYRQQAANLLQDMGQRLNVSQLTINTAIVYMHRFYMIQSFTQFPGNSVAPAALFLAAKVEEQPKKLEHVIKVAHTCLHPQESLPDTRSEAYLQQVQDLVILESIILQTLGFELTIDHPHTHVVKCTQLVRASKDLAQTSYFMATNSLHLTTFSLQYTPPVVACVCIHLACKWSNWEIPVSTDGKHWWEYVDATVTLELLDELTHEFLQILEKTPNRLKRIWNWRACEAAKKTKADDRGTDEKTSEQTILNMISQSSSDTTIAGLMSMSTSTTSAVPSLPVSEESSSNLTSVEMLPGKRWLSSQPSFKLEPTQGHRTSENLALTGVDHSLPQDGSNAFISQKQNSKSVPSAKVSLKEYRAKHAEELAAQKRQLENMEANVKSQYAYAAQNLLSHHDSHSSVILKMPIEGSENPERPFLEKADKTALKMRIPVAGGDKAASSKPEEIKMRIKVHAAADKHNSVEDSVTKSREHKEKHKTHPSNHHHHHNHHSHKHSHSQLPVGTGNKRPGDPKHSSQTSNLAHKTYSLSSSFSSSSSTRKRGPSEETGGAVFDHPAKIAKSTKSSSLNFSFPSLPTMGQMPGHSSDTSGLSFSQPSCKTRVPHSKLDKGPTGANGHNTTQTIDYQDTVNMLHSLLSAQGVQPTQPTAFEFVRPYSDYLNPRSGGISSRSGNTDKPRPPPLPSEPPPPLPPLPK
protocol_summary: CDK9/CyclinT1 Enzymatic Activity Assay (TR-FRET)
condition_label: ATP 1 mM, recombinant CDK9/Cyclin T1 1 nM, read-out: CDK9_T1 IC50
Description: CDK9/CyclinT1 Enzymatic Activity Assay The inhibitory activity of compounds was evaluated in vitro using TR-FRET assay with white 384-well low volume microplate (Greiner Bio-One). CDK9/Cyclin T1 catalyzed phosphorylation of peptides in the presence and absence of compounds was measured and used in IC50 determination. […] The reaction signal was measured by Envision multimode plate reader (PerkinElmer, 2102-0010). […]
pIC50: −log10 of the molar value.
result_type: pIC50

INSERT INTO results (compound, result_type, measured_value) VALUES
  ('Cc1cnc(NC(=O)[C@H]2CCC[C@@H](NC(=O)CC#N)C2)cc1-c1cccc2c1CC(C)(C)N2 [Example 6]', 'pIC50', '> 7.70');

Consider the compound shown here: N#CCC(=O)N[C@@H]1CCC[C@H](C(=O)Nc2cc(-c3cc(F)cc4c3OCCN4)c(Cl)cn2)C1 [Example 12] What is its recorded pIC50?
> 7.70

For CC1COc2c(cc(F)cc2-c2cc(NC(=O)[C@H]3CCC[C@@H](NC(=O)CC#N)C3)ncc2Cl)N1 (stereo partly drawn) [Example 13] , what is its reported pIC50?
> 7.70

So what's the measured pIC50 for this one? Cc1cnc(NC(=O)[C@H]2CCC[C@@H](NC(=O)CC#N)C2)cc1-c1cccc2c1OCC(C)(C)N2 [Example 7]
6.70 to 7.70

----------
A collection of molecules and their measured IC50
test_target: CDK4/Cyclin D1 (Homo sapiens)
Sequence (P11802 whole entry): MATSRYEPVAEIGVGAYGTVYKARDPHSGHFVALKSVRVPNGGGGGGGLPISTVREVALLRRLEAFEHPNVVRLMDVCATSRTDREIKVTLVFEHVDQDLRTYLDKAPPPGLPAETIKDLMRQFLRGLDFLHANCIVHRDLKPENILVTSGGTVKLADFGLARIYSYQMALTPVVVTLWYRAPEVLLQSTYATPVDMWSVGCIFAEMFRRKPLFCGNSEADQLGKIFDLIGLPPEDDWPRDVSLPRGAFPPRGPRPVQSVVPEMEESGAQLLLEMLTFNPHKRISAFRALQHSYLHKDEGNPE
Sequence (P24385 whole entry partner): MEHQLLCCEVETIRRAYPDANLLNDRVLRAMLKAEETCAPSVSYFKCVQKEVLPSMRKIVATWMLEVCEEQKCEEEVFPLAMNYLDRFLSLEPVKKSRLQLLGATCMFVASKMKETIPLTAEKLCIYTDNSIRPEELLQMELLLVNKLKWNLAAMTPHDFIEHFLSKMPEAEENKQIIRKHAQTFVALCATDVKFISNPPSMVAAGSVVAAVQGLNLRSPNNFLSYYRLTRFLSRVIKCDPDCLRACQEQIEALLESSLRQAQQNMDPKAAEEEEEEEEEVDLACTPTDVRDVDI
protocol_summary: CDK4/CyclinD1 Enzymatic Activity Assay (TR-FRET)
condition_label: ATP 2 mM, recombinant CDK4/Cyclin D1 1 nM, read-out: CDK4_D1 IC50

# example entries with known answers
INSERT INTO measurements (molecule, measured_value) VALUES
  ('Cc1cnc(NC(=O)[C@H]2CCC[C@@H](NC(=O)CC#N)C2)cc1-c1cccc2c1CC(C)(C)N2', '> 1000 nM'),
  ('CC(=O)N[C@@H]1CCC[C@H](C(=O)Nc2cc(-c3cccc4c3CC(C)(C)N4)c(Cl)cn2)C1', '20 to 200 nM'),
  ('N#CCC(=O)N[C@@H]1CCC[C@H](C(=O)Nc2cc(-c3cccc4c3OCCN4)c(Cl)cn2)C1', '20 to 200 nM');

Could you share which IC50 value was measured for CC1COc2c(cc(F)cc2-c2cc(NC(=O)[C@H]3CCC[C@@H](NC(=O)CC#N)C3)ncc2Cl)N1 (stereo partly shown) ?
20 to 200 nM

Request the reported IC50 associated with CC(=O)N[C@@H]1CCC[C@H](C(=O)Nc2cc(-c3cccc4c3CC(C)N4)c(Cl)cn2)C1 (stereo partly shown)
200 to 1000 nM

Suppose we examine the molecule N#CCC(=O)N[C@@H]1CCC[C@H](C(=O)Nc2cc(-c3cc(F)cc4c3OCCN4)c(Cl)cn2)C1 ; what IC50 value has been reported?
20 to 200 nM

GET /values?readout=IC50&item= CC(=O)N[C@@H]1CCC[C@H](C(=O)Nc2cc(-c3cccc4c3OCC(C)(C)N4)c(Cl)cn2)C1
> 1000 nM
